The values you see were collected from patent US20060281899A1.

Protocol Summary: Non-reducing SDS-PAGE thermostability, oligomeric forms after boiling
Format: physicochemical
Condition Parameters: boiled 20 minutes
Examples of molecules with documented Dimeric form, relative proportion follow.
Numbers only here, please. The scale is percentage.

In the examples that follow, each entry is paired with its recorded Dimeric form, relative proportion.
{"columns": ["Molecule", "Experimental Result"],
 "data": [
  ["AVR4/5: Recombinant chicken avidin-related protein 4/5 (AVR4 and AVR5 identical in coding sequence) (protein, UniProt P56734 25-150, looked up) Avidin-related protein 4/5: ARKCSLTGKWTNNLGSIMTIRAVNSRGEFTGTYLTAVADNPGNITLSPLLGIQHKRASQPTFGFTVHWNFSESTTVFTGQCFIDRNGKEVLKTMWLLRSSVNDISYDWKATRVGYNNFTRLCTVEE", 50],
  ["AVR6: Recombinant chicken avidin-related protein 6, produced in Sf9 insect cells (protein, UniProt P56735 25-150, looked up) Avidin-related protein 6: ARKCSLTGEWDNNLGSIMTIGAVNDNGEFNGTYITAVADNPGNIKLSPLLGIQHKRACQPTFGFTVHWNFSESTSVFVGQCFVDRSGKEVLKTKWLQRLAVDDISDDWKATRVGYNNFTRQRTVEE", 50],
  ["AVR3: Recombinant chicken avidin-related protein 3, produced in Sf9 insect cells (protein, UniProt P56733 25-150, looked up) Avidin-related protein 3: ARKCSLTGKWTNNLGSIMTIRAVNSRGEFAGTYLTAVADNPGNIKLSPLLGIQHKRACQPTFGFTVHWNFSESTSVFVGQCFIDRSGKEVLKTKWLQRLAVDDISDDWKATRVGYNNFTRQRTVEE", 50],
  ["AVR1: Recombinant chicken avidin-related protein 1, produced in Sf9 insect cells (protein, UniProt O13153 25-150, looked up) Avidin-related protein 1: ARKCSLTGKWDNDLGSIMTIGAVNDNGEFNGTYITAVADNPGNITRSPLLGIQHKRACQPTFGFTVHWNFSESTSVFVGQCFVDKSGKEVLKTKWLQRLAVDDISDDWKATRVGNNDFTRQRTVEE", 40]
]}

Now, please, on to the next molecule.
Entry AVR7: Recombinant chicken avidin-related protein 7, produced in Sf9 insect cells (protein, UniProt P56736 25-150, looked up) Avidin-related protein 7: ARKCSLTGEWDNNLGSNMTIGAVNDNGEFNGTYITAVADNPGNIKLSPLLGIQHKRACQPTFGFTVHWNFSESTSVFVGQCFIDRSGKEVLKTKWLQRLAVDDISDDWKATRVGYNNFTRQRTVEE has what Dimeric form, relative proportion?
20
